Where these numbers come from: patent US20260191981A1

STUDY_TARGET: T1, biotinylated cTfR1 (Acro Bio p/n TFR-C8249) (cynomolgus monkey, UniProt H9EXL1 89-760 (rhesus entry), biotinylated; site not stated)
T1 construct: Bought reagent of the BLI assay
T1 sequence (chain, as listed by the source): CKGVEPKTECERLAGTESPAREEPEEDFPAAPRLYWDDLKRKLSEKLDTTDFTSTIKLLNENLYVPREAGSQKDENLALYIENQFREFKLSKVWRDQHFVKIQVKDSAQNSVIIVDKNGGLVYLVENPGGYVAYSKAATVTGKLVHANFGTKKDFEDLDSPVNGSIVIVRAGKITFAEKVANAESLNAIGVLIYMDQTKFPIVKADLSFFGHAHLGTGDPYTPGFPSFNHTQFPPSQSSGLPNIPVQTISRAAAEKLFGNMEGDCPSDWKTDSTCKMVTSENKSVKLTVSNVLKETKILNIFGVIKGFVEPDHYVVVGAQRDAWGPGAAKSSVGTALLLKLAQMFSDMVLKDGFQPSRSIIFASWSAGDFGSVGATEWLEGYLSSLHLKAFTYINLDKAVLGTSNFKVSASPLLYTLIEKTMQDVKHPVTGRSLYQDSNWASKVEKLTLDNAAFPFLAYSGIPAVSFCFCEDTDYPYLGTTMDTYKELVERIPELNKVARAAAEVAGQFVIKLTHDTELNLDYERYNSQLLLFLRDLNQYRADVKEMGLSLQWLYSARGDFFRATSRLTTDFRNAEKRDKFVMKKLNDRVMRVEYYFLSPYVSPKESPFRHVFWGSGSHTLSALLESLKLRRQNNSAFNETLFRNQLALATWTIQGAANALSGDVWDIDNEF
PROTOCOL_TEXT: BLI, Octet RH16, biotinylated TfR1 on streptavidin sensor; Fab-siRNA conjugate
pKd: −log10 of the molar value.
READOUT_TYPE: pKd

INSERT INTO results (binder, meas_value) VALUES
  ('Fab0060-siRNA conjugate (Fab, V domains shown, siRNA-linker on a reduced cysteine; chain and residue not stated, also called Fab0060 (BLI conjugate columns)) VH: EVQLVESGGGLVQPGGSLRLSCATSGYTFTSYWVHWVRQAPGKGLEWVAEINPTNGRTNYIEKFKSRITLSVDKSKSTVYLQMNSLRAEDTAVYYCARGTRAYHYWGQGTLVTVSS VL: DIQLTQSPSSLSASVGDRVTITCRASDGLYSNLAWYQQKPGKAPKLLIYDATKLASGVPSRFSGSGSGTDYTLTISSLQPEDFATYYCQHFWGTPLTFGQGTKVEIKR', 8.04),
  ('Fab0071-siRNA conjugate (Fab, V domains shown, siRNA-linker on a reduced cysteine; chain and residue not stated, also called Fab0071 (BLI conjugate columns)) VH: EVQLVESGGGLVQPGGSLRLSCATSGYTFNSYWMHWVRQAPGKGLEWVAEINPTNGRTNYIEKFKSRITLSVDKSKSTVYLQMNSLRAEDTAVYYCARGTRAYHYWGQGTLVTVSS VL: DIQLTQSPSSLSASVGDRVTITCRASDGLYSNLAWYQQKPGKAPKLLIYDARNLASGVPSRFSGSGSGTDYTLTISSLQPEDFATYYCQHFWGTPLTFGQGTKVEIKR', 7.74),
  ('Fab0063-siRNA conjugate (Fab, V domains shown, siRNA-linker on a reduced cysteine; chain and residue not stated, also called Fab0063 (BLI conjugate columns)) VH: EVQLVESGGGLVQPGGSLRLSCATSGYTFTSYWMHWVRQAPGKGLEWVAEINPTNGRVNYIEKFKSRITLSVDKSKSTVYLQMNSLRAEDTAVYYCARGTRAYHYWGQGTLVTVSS VL: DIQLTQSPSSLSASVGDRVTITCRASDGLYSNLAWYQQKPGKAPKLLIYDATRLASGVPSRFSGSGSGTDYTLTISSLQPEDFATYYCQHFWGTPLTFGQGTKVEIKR', 8.08),
  ('Fab0074-siRNA conjugate (Fab, V domains shown, siRNA-linker on a reduced cysteine; chain and residue not stated, also called Fab0074 (BLI conjugate columns)) VH: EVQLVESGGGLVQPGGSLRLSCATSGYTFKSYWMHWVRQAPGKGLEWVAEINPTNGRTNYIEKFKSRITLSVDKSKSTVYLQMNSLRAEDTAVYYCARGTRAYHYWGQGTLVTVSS VL: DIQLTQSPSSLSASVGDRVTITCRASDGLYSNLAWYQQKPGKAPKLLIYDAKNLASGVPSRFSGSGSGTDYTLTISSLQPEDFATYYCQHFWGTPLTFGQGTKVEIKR', 7.91),
  ('Fab0062-siRNA conjugate (Fab, V domains shown, siRNA-linker on a reduced cysteine; chain and residue not stated, also called Fab0062 (BLI conjugate columns)) VH: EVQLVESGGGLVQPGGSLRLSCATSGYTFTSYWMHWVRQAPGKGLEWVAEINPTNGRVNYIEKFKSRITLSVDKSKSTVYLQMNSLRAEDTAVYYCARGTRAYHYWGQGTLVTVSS VL: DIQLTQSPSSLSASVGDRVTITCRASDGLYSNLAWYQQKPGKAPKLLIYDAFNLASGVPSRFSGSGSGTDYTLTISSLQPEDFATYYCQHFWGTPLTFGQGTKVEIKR', 7.96);
